Test system: CAL-120
Assay summary: drug sensitivity score (DSS), CellTiter-Glo (DSS (AUC-based score)); higher = stronger drug effect (viability inhibition or cytotoxicity); extreme values may be limits of the assay
Measurement context: incubation time: 72 h
Would you mind telling me the reported drug sensitivity score of each entry?

Look over these answered cases.
# Compound, Target or test system, drug sensitivity score
rows = [
    ("S=c1[nH]cnc2nc[nH]c12", "CAL-120", 4.08),
    ("OC[C@H]1O[C@@H](n2cnc3c2N=CNC[C@H]3O)C[C@@H]1O", "CAL-120", 0),
    ("Clc1ccc(C(c2ccccc2Cl)C(Cl)Cl)cc1 (centres undefined)", "CAL-120", 0),
]

The compound COc1cc(Nc2ncc3c(n2)-c2ccc(Cl)cc2C(c2c(F)cccc2OC)=NC3)ccc1C(=O)O showed drug sensitivity score equal to 5.92

====

Please respond with reported normalised response for every item in the list.
System: CAL-120
Assay summary: normalised response (% of control), CellTiter-Glo; higher = more viable cells (100 = DMSO, 0 = benzethonium chloride kill control)
Measurement context: incubation time: 72 h
Give bare numbers, in %.

Examples with their reported normalised response follow.
# Compound, Reported measurement
measured = [
    ("CC(=O)O[C@]1(C(C)=O)CC[C@H]2[C@@H]3C=C(C)C4=CC(=O)CC[C@]4(C)[C@H]3CC[C@@]21C [Megestrol acetate] (1000 nM)", 98.2),
    ("C[C@]1(c2nc3c(C(N)=O)cccc3[nH]2)CCCN1 [Veliparib] (1 nM)", 97.3),
    ("CN1CCC(COc2cnc(-c3cccc(Cn4nc(-c5cccc(C#N)c5)ccc4=O)c3)nc2)CC1 (0.1 nM)", 96.1),
]

For the 3 compounds below, give their normalised response values.
1. COc1cc(Nc2ncc3c(n2)-c2ccc(Cl)cc2C(c2c(F)cccc2OC)=NC3)ccc1C(=O)O [Alisertib] (1 nM)
2. C=CC[C@@H]1/C=C(\C)C[C@H](C)C[C@H](OC)[C@H]2O[C@@](O)(C(=O)C(=O)N3CCCC[C@H]3C(=O)O[C@H](/C(C)=C/[C@@H]3CC[C@@H](O)[C@H](OC)C3)[C@H](C)[C@@H](O)CC1=O)[C@H](C)C[C@@H]2OC [Tacrolimus] (1 nM)
3. O=C(c1ccc(C(=O)N2CCC(N3CCCC3)CC2)c(Nc2ccccc2)c1)N1CCC(N2CCCC2)CC1 [UNC1215] (3 nM)

A)
1: 96.7; 2: 98; 3: 95.3

====

Provide the recorded drug sensitivity score for the entries that follow.
Tested on: MDA-MB-436
Assay summary: drug sensitivity score (DSS), CellTiter-Glo (DSS (AUC-based score)); higher = stronger drug effect (viability inhibition or cytotoxicity); extreme values may be limits of the assay
Measurement context: incubation time: 72 h
One number for each entry.

Batch request: drug sensitivity score for each of the following molecules.
1. C[C@]1(c2nc3c(C(N)=O)cccc3[nH]2)CCCN1 [Veliparib]
2. COc1cccc2cc(-c3nc([C@H]4CC[C@H](C(=O)O)CC4)n4ncnc(N)c34)[nH]c12 [OSI-027]
3. N#CC[C@H](C1CCCC1)n1cc(-c2ncnc3[nH]ccc23)cn1 [Ruxolitinib]
4. C=CC[C@@H]1/C=C(\C)C[C@H](C)C[C@H](OC)[C@H]2O[C@@](O)(C(=O)C(=O)N3CCCC[C@H]3C(=O)O[C@H](/C(C)=C/[C@@H]3CC[C@@H](O)[C@H](OC)C3)[C@H](C)[C@@H](O)CC1=O)[C@H](C)C[C@@H]2OC [Tacrolimus]

A)
0
4.39
0
0

====

Give normalised response for every item shown.
Test system: BT-549
Assay summary: normalised response (% of control), CellTiter-Glo; higher = more viable cells (100 = DMSO, 0 = benzethonium chloride kill control)
Measurement context: incubation time: 72 h
Give bare numbers, in %.

# Compound, normalised response [%]
measured = [
    ("C[C@]1(c2nc3c(C(N)=O)cccc3[nH]2)CCCN1 [Veliparib] (100 nM)", 101),
    ("C=CC[C@@H]1/C=C(\\C)C[C@H](C)C[C@H](OC)[C@H]2O[C@@](O)(C(=O)C(=O)N3CCCC[C@H]3C(=O)O[C@H](/C(C)=C/[C@@H]3CC[C@@H](O)[C@H](OC)C3)[C@H](C)[C@@H](O)CC1=O)[C@H](C)C[C@@H]2OC [Tacrolimus] (100 nM)", 98.2),
    ("CCN1CCN(c2ccc(Nc3cc(N(C)C(=O)Nc4c(Cl)c(OC)cc(OC)c4Cl)ncn3)cc2)CC1 [NVP-BGJ398] (10 nM)", 99.4),
]

Working through the 4 compounds below one at a time, give normalised response for each.
1. Nc1nc(Cl)nc2c1ncn2[C@H]1C[C@H](O)[C@@H](CO)O1 [Cladribine] (10 nM)
2. CO[C@H]1C[C@@H]2CC[C@@H](C)[C@@](O)(O2)C(=O)C(=O)N2CCCC[C@H]2C(=O)O[C@H]([C@H](C)C[C@@H]2CC[C@@H](OC(=O)C(C)(CO)CO)[C@H](OC)C2)CC(=O)[C@H](C)/C=C(\C)[C@@H](O)[C@@H](OC)C(=O)[C@H](C)C[C@H](C)/C=C/C=C/C=C/1C [Temsirolimus] (1 nM)
3. OC[C@H]1O[C@@H](n2cnc3c2N=CNC[C@H]3O)C[C@@H]1O [Pentostatin] (100 nM)
4. Cc1c2oc3c(C)ccc(C(=O)N[C@@H]4C(=O)N[C@H](C(C)C)C(=O)N5CCC[C@H]5C(=O)N(C)CC(=O)N(C)[C@@H](C(C)C)C(=O)O[C@@H]4C)c3nc-2c(C(=O)N[C@@H]2C(=O)N[C@H](C(C)C)C(=O)N3CCC[C@H]3C(=O)N(C)CC(=O)N(C)[C@@H](C(C)C)C(=O)O[C@@H]2C)c(N)c1=O [Dactinomycin] (10 nM)

A)
1: 105; 2: 68.4; 3: 96.1; 4: 13.3

====

Tested on: Hs578T
Assay summary: normalised viability (% of control), CellTiter-Blue; higher = more viable cells (about 100 = DMSO control)
Measurement context: 1000 nM; incubation time: 72 h
Note to self: normalised viability under 90% means 1, ties and anything higher get -1.

# Molecule, Assigned category
records = [
    ("CN(C)C/C=C/C(=O)Nc1cc2c(Nc3ccc(F)c(Cl)c3)ncnc2cc1O[C@H]1CCOC1", -1),
    ("C[C@]1(c2nc3c(C(N)=O)cccc3[nH]2)CCCN1", -1),
]

Q) Decide: normalised viability of Clc1ccc(C(c2ccccc2Cl)C(Cl)Cl)cc1 (stereo not drawn) strictly below 90%?
A) 1

Q) normalised viability strictly < 90% for this molecule? OC[C@H]1O[C@@H](n2cnc3c2N=CNC[C@H]3O)C[C@@H]1O
A) -1

====

Test system: MDA-MB-436
Assay summary: normalised viability (% of control), CellTiter-Blue; higher = more viable cells (100 = DMSO, 0 = benzethonium chloride kill control)
Measurement context: incubation time: 72 h
Please respond with reported normalised viability for every item in the list.
One number for each entry, in %.

Reference set (3 entries):
# Compound, Target or test system, normalised viability (%)
rows = [
    ("CS(=O)(=O)c1ccc(C(=O)Nc2ccc(Cl)c(-c3ccccn3)c2)c(Cl)c1 [Vismodegib] (1 nM)", "MDA-MB-436", 94.2),
    ("OC[C@H]1O[C@@H](n2cnc3c2N=CNC[C@H]3O)C[C@@H]1O [Pentostatin] (1 nM)", "MDA-MB-436", 99),
    ("Cc1c2oc3c(C)ccc(C(=O)N[C@@H]4C(=O)N[C@H](C(C)C)C(=O)N5CCC[C@H]5C(=O)N(C)CC(=O)N(C)[C@@H](C(C)C)C(=O)O[C@@H]4C)c3nc-2c(C(=O)N[C@@H]2C(=O)N[C@H](C(C)C)C(=O)N3CCC[C@H]3C(=O)N(C)CC(=O)N(C)[C@@H](C(C)C)C(=O)O[C@@H]2C)c(N)c1=O [Dactinomycin] (0.1 nM)", "MDA-MB-436", 94.9),
]

Now look at this entry.
For record CO[C@H]1C[C@@H]2CC[C@@H](C)[C@@](O)(O2)C(=O)C(=O)N2CCCC[C@H]2C(=O)O[C@H]([C@H](C)C[C@@H]2CC[C@@H](OC(=O)C(C)(CO)CO)[C@H](OC)C2)CC(=O)[C@H](C)/C=C(\C)[C@@H](O)[C@@H](OC)C(=O)[C@H](C)C[C@H](C)/C=C/C=C/C=C/1C [Temsirolimus] (0.1 nM) the listed normalised viability is 92.4

====

Tested on: MCF-10A
Assay summary: normalised response (% of control), CellTox Green; higher = less cell death (100 = DMSO, 0 = benzethonium chloride kill control)
Measurement context: incubation time: 72 h
Kindly supply the reported normalised response values for the records listed here.
Please don't drop the unit; write it after the number.

Solved entries:
# Compound, normalised response
measured = [
    ("O=C(c1ccc(C(=O)N2CCC(N3CCCC3)CC2)c(Nc2ccccc2)c1)N1CCC(N2CCCC2)CC1 [UNC1215] (300 nM)", "86.4%"),
    ("S=c1[nH]cnc2nc[nH]c12 [Mercaptopurine] (100 nM)", "99.5%"),
]

Sample CN(C)C/C=C/C(=O)Nc1cc2c(Nc3ccc(F)c(Cl)c3)ncnc2cc1O[C@H]1CCOC1 [Afatinib] (1000 nM) ; normalised response observed: 99.6%
